- Assay Target: rat collagen, acid soluble, type I, rat tail (Upstate 08-115) (rat) (UniProt P02454)
- Sequence (P02454 152-1207, chain 1 of 2): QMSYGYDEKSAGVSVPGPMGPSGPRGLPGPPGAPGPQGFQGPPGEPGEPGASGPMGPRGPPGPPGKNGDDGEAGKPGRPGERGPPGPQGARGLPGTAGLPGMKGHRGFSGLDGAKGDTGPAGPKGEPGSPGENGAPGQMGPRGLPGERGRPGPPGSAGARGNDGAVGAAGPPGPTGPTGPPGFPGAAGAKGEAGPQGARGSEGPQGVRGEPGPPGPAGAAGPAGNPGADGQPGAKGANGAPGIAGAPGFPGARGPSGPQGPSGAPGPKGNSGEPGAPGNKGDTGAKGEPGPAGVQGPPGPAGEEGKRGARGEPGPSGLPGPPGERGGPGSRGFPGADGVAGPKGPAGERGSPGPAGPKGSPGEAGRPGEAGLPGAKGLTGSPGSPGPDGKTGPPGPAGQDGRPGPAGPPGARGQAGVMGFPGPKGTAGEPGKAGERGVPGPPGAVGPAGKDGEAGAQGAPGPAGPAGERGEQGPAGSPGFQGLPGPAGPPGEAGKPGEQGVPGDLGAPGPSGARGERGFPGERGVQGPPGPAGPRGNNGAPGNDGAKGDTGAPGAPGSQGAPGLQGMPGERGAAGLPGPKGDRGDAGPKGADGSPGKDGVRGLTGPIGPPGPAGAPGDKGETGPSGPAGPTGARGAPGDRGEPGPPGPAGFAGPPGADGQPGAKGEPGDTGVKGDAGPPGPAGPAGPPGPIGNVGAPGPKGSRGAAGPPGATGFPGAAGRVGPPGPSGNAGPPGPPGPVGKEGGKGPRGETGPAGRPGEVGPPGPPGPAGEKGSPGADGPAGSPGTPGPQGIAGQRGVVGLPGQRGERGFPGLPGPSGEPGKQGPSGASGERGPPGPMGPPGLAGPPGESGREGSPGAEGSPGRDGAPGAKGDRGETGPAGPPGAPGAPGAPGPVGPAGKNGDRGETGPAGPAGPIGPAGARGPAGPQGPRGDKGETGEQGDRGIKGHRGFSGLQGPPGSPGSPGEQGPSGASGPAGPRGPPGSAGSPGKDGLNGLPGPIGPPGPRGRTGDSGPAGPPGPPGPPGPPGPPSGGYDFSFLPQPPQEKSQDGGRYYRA
- Sequence (P02466 86-1125, chain 2 of 2, further chain): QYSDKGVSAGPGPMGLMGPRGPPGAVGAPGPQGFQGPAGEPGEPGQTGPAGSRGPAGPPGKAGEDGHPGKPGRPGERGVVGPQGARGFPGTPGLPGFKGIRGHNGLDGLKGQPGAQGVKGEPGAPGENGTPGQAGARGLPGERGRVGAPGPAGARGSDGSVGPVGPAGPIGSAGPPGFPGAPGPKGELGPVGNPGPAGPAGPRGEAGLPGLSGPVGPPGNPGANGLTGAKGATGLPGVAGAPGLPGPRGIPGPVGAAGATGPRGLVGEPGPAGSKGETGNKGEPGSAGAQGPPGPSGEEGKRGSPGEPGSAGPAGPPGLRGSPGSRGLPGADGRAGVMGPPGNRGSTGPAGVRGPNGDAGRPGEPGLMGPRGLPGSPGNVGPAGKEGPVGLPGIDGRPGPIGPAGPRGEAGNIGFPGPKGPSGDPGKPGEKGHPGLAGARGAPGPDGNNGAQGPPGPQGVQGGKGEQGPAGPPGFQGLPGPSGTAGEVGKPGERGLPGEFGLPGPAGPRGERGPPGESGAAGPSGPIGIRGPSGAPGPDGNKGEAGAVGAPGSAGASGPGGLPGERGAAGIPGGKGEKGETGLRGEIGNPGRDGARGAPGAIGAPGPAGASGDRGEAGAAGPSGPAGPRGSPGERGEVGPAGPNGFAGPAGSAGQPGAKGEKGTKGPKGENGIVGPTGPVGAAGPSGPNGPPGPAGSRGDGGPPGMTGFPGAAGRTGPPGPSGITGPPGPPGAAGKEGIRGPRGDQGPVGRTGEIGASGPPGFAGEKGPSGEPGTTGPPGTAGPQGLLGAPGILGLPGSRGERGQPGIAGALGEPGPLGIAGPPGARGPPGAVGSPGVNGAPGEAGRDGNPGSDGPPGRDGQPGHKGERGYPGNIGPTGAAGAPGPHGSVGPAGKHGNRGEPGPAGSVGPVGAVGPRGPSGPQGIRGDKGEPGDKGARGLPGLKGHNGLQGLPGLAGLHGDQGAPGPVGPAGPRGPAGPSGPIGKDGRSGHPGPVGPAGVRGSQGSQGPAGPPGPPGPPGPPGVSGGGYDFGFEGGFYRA
- Procedure Details: dried collagen assay
Bridge positions count the residues as written; N and C are the ends. Square brackets hold non-standard residues; d marks the D form. Primed or numbered codes have the meaning given here. Ends that are not written are not given here. * marks the point of attachment. GdDTPA‑thiourea = GdT is GdDTPA-thiourea (Gd-DTPA chelate attached through a thiourea); Orn = NCCC[C@H](N)C(=O)O; Gd^T″ = GdDTPA-thiourea; Cbz = O=C(OCc1ccccc1)*; Dap = NC[C@H](N)C(=O)O
Recorded % bound by entry

Binder	% bound
Cbz-GQWHCT[Dap](GdDTPA‑thiourea)RFPHHYCLYG (disulfide 5-14 (inferred); also: gadolinium complex (GdDTPA)) [Compound ID 939]	5%
{Gd^T″}-GQWTCSGDEYAWHCNY[dE] (disulfide 5-14 (inferred); not fully specified (C-terminus)) [Compound ID 832]	4%
QW[dT]CSGDEYTWHCNYE (disulfide 4-13 (inferred); not fully specified (N-terminus, C-terminus); printed as QWtCSGDEYTWHCNYE) [SEQ ID NO 166]	3%
Cbz-GQWHCT[Orn](GdDTPA‑thiourea)RFPHHYCLYG (disulfide 5-14 (inferred); also: gadolinium complex (GdDTPA)) [Compound ID 941]	5%
YHACAQAGCWIW (disulfide 4-9 (inferred)) [SEQ ID NO 133]	5%

meta.source: patent US20080044360A1
